# tested system: von Hippel-Lindau disease tumor suppressor/Histone deacetylase 8 (Homo sapiens) (UniProt Q9BY41+P40337)
# Sequence (P40337 whole entry, looked up): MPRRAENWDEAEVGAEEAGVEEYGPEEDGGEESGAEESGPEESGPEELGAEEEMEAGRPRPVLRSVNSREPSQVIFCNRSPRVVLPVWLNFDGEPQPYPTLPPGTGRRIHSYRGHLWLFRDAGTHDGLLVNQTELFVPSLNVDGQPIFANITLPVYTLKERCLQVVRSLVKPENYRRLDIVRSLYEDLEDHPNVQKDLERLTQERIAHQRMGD
# Sequence (Q9BY41 whole entry, looked up): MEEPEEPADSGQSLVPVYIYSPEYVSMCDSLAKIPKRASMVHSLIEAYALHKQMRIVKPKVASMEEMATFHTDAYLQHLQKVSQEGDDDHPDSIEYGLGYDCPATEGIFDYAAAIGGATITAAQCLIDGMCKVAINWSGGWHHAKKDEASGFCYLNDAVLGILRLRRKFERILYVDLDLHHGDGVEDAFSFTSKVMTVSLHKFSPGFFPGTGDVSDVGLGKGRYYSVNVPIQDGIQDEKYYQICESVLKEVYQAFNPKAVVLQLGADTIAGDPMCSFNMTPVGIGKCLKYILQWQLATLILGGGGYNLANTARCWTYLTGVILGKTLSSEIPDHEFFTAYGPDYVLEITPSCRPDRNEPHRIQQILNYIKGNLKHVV
# test method notes: Protac activity at VHL/HDAC8 in human A549 cells assessed as degradation of HDAC8 at 200 nM measured after 20 hrs by Western blot analysis relative to control
# Type: cell-based
API: label(entry) gives TRUE if the entry's Activity is strictly smaller than 30%; on equality or larger values it gives FALSE.

Example results:
Cc1ncsc1-c1ccc([C@H](C)NC(=O)[C@@H]2C[C@@H](O)CN2C(=O)[C@@H](NC(=O)COCCOc2ccc(Cn3ccc4ccc(C(=O)NO)cc43)cc2)C(C)(C)C)cc1 | FALSE
Cc1ncsc1-c1ccc([C@H](C)NC(=O)[C@@H]2C[C@@H](O)CN2C(=O)[C@@H](NC(=O)COCCOCCOCCOc2ccc(Cn3ccc4ccc(C(=O)NO)cc43)cc2)C(C)(C)C)cc1 | TRUE
Cc1ncsc1-c1ccc([C@H](C)NC(=O)[C@@H]2C[C@@H](O)CN2C(=O)[C@@H](NC(=O)COCCOCCOc2ccc(Cn3ccc4ccc(C(=O)NO)cc43)cc2)C(C)(C)C)cc1 | FALSE
Cc1ncsc1-c1ccc([C@H](C)NC(=O)[C@@H]2C[C@@H](O)CN2C(=O)[C@@H](NC(=O)CCCCCOc2ccc(Cn3ccc4ccc(C(=O)NO)cc43)cc2)C(C)(C)C)cc1 | TRUE
Cc1ncsc1-c1ccc([C@H](C)NC(=O)[C@@H]2C[C@@H](O)CN2C(=O)[C@@H](NC(=O)COCCOCCOCCOCCOc2ccc(Cn3ccc4ccc(C(=O)NO)cc43)cc2)C(C)(C)C)cc1 | TRUE

Incoming: Bench note: check whether Cc1ncsc1-c1ccc([C@H](C)NC(=O)[C@@H]2C[C@@H](O)CN2C(=O)[C@@H](NC(=O)CCCCOc2ccc(Cn3ccc4ccc(C(=O)NO)cc43)cc2)C(C)(C)C)cc1 shows Activity below 30%
Outgoing: FALSE

Incoming: Strictly below 30% in Activity? Cc1ncsc1-c1ccc([C@H](C)NC(=O)[C@@H]2C[C@@H](O)CN2C(=O)[C@@H](NC(=O)CCCOc2ccc(Cn3ccc4ccc(C(=O)NO)cc43)cc2)C(C)(C)C)cc1
Outgoing: TRUE

###

# tested system: von Hippel-Lindau disease tumor suppressor/Histone deacetylase 8 (Homo sapiens) (UniProt Q9BY41+P40337)
# test method notes: Protac activity at VHL/HDAC8 in human A549 cells assessed as degradation of HDAC8 at 2 uM measured after 20 hrs by Western blot analysis relative to control
# Type: cell-based
Measured Activity, listed per entry.
For clarity, give the value followed by its unit.

Before answering, review these 2 worked examples.
Cc1ncsc1-c1ccc([C@H](C)NC(=O)[C@@H]2C[C@@H](O)CN2C(=O)[C@@H](NC(=O)COCCOCCOCCOc2ccc(Cn3ccc4ccc(C(=O)NO)cc43)cc2)C(C)(C)C)cc1 | 50.2%
Cc1ncsc1-c1ccc([C@H](C)NC(=O)[C@@H]2C[C@@H](O)CN2C(=O)[C@@H](NC(=O)CCCOc2ccc(Cn3ccc4ccc(C(=O)NO)cc43)cc2)C(C)(C)C)cc1 | 26.4%

Next up:
Incoming: # query: Activity of entry Cc1ncsc1-c1ccc([C@H](C)NC(=O)[C@@H]2C[C@@H](O)CN2C(=O)[C@@H](NC(=O)CCCCOc2ccc(Cn3ccc4ccc(C(=O)NO)cc43)cc2)C(C)(C)C)cc1
Outgoing: 75.7%

###

# tested system: Protein cereblon/Histone deacetylase 8 (Homo sapiens) (UniProt Q9BY41+Q96SW2)
# Sequence (Q96SW2 whole entry, looked up): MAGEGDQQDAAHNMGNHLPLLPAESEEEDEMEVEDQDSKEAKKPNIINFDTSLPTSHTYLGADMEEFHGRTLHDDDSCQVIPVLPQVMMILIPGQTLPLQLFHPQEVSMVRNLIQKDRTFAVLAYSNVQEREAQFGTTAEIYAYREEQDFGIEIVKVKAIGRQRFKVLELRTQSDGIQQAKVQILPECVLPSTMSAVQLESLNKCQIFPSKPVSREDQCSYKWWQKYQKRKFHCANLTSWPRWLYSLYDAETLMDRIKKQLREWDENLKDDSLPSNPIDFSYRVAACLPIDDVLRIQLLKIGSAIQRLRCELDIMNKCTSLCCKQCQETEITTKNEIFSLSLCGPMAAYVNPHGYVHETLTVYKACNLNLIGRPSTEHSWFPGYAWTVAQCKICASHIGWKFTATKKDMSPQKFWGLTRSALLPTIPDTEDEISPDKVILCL
# Sequence (Q9BY41 whole entry, looked up): as the sequence (Q9BY41 whole entry, looked up) above
# test method notes: Protac activity at CRBN/HDAC8 in human A549 cells assessed as degradation of HDAC8 at 200 nM measured after 20 hrs by Western blot analysis relative to control
# Type: cell-based
property: Activity (%)
Respond with the bare value in %.

Recorded Activity, per entry:
O=C1CCC(N2C(=O)c3cccc(NCc4cn(CCCOc5ccc(Cn6ccc7ccc(C(=O)NO)cc76)cc5)nn4)c3C2=O)C(=O)N1 (stereo not given) | 25.6
O=C1CCC(N2C(=O)c3cccc(NCc4cn(CCCCCOc5ccc(Cn6ccc7ccc(C(=O)NO)cc76)cc5)nn4)c3C2=O)C(=O)N1 (stereo not given) | 39.5
O=C1CCC(N2C(=O)c3cccc(NCCc4cn(CCOCCOc5ccc(Cn6ccc7ccc(C(=O)NO)cc76)cc5)nn4)c3C2=O)C(=O)N1 (stereo not given) | 29.4
O=C1CCC(N2C(=O)c3cccc(NCCc4cn(CCCCCOc5ccc(Cn6ccc7ccc(C(=O)NO)cc76)cc5)nn4)c3C2=O)C(=O)N1 (stereo not given) | 28
O=C1CCC(N2C(=O)c3cccc(NCc4cn(CCCCCCOc5ccc(Cn6ccc7ccc(C(=O)NO)cc76)cc5)nn4)c3C2=O)C(=O)N1 (stereo not given) | 28.5
O=C1CCC(N2C(=O)c3cccc(NCc4cn(CCOCCOCCOCCOCCOc5ccc(Cn6ccc7ccc(C(=O)NO)cc76)cc5)nn4)c3C2=O)C(=O)N1 (stereo not given) | 39.4
O=C1CCC(N2C(=O)c3cccc(NCc4cn(CCCCOc5ccc(Cn6ccc7ccc(C(=O)NO)cc76)cc5)nn4)c3C2=O)C(=O)N1 (stereo not given) | 30.6
O=C1CCC(N2C(=O)c3cccc(NCc4cn(CCOCCOc5ccc(Cn6ccc7ccc(C(=O)NO)cc76)cc5)nn4)c3C2=O)C(=O)N1 (stereo not given) | 39.7

Incoming: Activity lookup needed for O=C1CCC(N2C(=O)c3cccc(NCc4cn(CCOCCOCCOc5ccc(Cn6ccc7ccc(C(=O)NO)cc76)cc5)nn4)c3C2=O)C(=O)N1 (stereo not given) , thanks.
Outgoing: 42.5

Incoming: Find the recorded Activity belonging to O=C1CCC(N2C(=O)c3cccc(NCc4cn(CCOCCOCCOCCOc5ccc(Cn6ccc7ccc(C(=O)NO)cc76)cc5)nn4)c3C2=O)C(=O)N1 (stereo not given) and report it.
Outgoing: 36.5

###

# tested system: Protein cereblon/Histone deacetylase 8 (Homo sapiens) (UniProt Q9BY41+Q96SW2)
# test method notes: Protac activity at CRBN/HDAC8 in human A549 cells assessed as degradation of HDAC8 at 2 uM measured after 20 hrs by Western blot analysis relative to control
# Type: cell-based
Hi! Could you tag entries with Activity below 80% as MET, and those at or above as NOT MET? Much appreciated.

Incoming: Say whether its Activity is strictly beneath 80%. Entry: O=C1CCC(N2C(=O)c3cccc(NCc4cn(CCOCCOCCOCCOc5ccc(Cn6ccc7ccc(C(=O)NO)cc76)cc5)nn4)c3C2=O)C(=O)N1 (stereo not given)
Outgoing: MET

Incoming: Would you kindly verify if Activity of O=C1CCC(N2C(=O)c3cccc(NCc4cn(CCOCCOc5ccc(Cn6ccc7ccc(C(=O)NO)cc76)cc5)nn4)c3C2=O)C(=O)N1 (stereo not given) is strictly less than 80%?
Outgoing: NOT MET

Incoming: hey, is Activity for O=C1CCC(N2C(=O)c3cccc(NCc4cn(CCCCCCOc5ccc(Cn6ccc7ccc(C(=O)NO)cc76)cc5)nn4)c3C2=O)C(=O)N1 (stereo not given) lower than 80% or not?
Outgoing: MET

###

# tested system: Protein cereblon/Histone deacetylase 8 (Homo sapiens) (UniProt Q9BY41+Q96SW2)
# test method notes: Protac activity at CRBN/HDAC8 in human A549 cells assessed as degradation of HDAC8 at 2 uM measured after 20 hrs by Western blot analysis relative to control
# Assay type: cell-based
Decide using Activity alone. Strictly below 80%: condition met. Equal to or above 80%: condition not met.

For orientation, consider the following solved cases.
O=C1CCC(N2C(=O)c3cccc(NCc4cn(CCCCCOc5ccc(Cn6ccc7ccc(C(=O)NO)cc76)cc5)nn4)c3C2=O)C(=O)N1 (configuration not stated) | condition not met
O=C1CCC(N2C(=O)c3cccc(NCc4cn(CCCOc5ccc(Cn6ccc7ccc(C(=O)NO)cc76)cc5)nn4)c3C2=O)C(=O)N1 (configuration not stated) | condition met

Incoming: Take the compound O=C1CCC(N2C(=O)c3cccc(NCc4cn(CCCCOc5ccc(Cn6ccc7ccc(C(=O)NO)cc76)cc5)nn4)c3C2=O)C(=O)N1 (configuration not stated) and say whether its Activity is less than 80%.
Outgoing: condition not met

Incoming: Is 80% strictly greater than the compound's reported Activity? compound: O=C1CCC(N2C(=O)c3cccc(NCCc4cn(CCOCCOc5ccc(Cn6ccc7ccc(C(=O)NO)cc76)cc5)nn4)c3C2=O)C(=O)N1 (configuration not stated)
Outgoing: condition met

Incoming: Please let me know if O=C1CCC(N2C(=O)c3cccc(NCc4cn(CCOCCOCCOc5ccc(Cn6ccc7ccc(C(=O)NO)cc76)cc5)nn4)c3C2=O)C(=O)N1 (configuration not stated) shows Activity below 80%.
Outgoing: condition met

Cited source for all entries: ChEMBL document CHEMBL5316263
